Reference source: patent US10703728B1

assay notes: Solubility of olaparib at 60° C. in solvents and anti-solvents
Format: physicochemical
setup conditions: dimethylacetamide (DMAc), organic solvent or mixture, DMAc
endpoint: solubility

The molecule O=C(c1cc(Cc2n[nH]c(=O)c3ccccc23)ccc1F)N1CCN(C(=O)C2CC2)CC1 showed solubility equal to > 220 mg/mL

* * *

assay notes: Solubility of olaparib at 60° C. in solvents and anti-solvents
Assay type: physicochemical
setup conditions: isopropanol (IPA), organic solvent or mixture, IPA
endpoint: solubility

The molecule O=C(c1cc(Cc2n[nH]c(=O)c3ccccc23)ccc1F)N1CCN(C(=O)C2CC2)CC1 showed solubility equal to < 16.2 mg/mL

* * *

assay notes: Solubility of olaparib at 60° C. in solvents and anti-solvents
Assay type: physicochemical
setup conditions: acetonitrile (ACN), organic solvent or mixture, ACN
endpoint: solubility

The molecule O=C(c1cc(Cc2n[nH]c(=O)c3ccccc23)ccc1F)N1CCN(C(=O)C2CC2)CC1 showed solubility equal to < 16.2 mg/mL

* * *

assay notes: Solubility of olaparib at room temperature
Type: physicochemical
setup conditions: dimethyl sulfoxide (DMSO), organic solvent or mixture, DMSO
endpoint: solubility

The compound O=C(c1cc(Cc2n[nH]c(=O)c3ccccc23)ccc1F)N1CCN(C(=O)C2CC2)CC1 [olaparib] showed solubility equal to > 210 mg/mL

* * *

assay notes: Solubility of olaparib at 60° C. in solvents and anti-solvents
Assay type: physicochemical
setup conditions: organic solvent or mixture, Toluene
endpoint: solubility

The compound O=C(c1cc(Cc2n[nH]c(=O)c3ccccc23)ccc1F)N1CCN(C(=O)C2CC2)CC1 [olaparib] showed solubility equal to < 16.9 mg/mL

* * *

assay notes: Solubility of olaparib at 60° C. in solvents and anti-solvents
Format: physicochemical
setup conditions: methanol (MeOH), organic solvent or mixture, MeOH
endpoint: solubility

The molecule O=C(c1cc(Cc2n[nH]c(=O)c3ccccc23)ccc1F)N1CCN(C(=O)C2CC2)CC1 [olaparib] showed solubility equal to 53 to 70 mg/mL

* * *

assay notes: Solubility of olaparib at 60° C. in solvents and anti-solvents
Format: physicochemical
setup conditions: ethyl acetate (EA), organic solvent or mixture, EA
endpoint: solubility

The compound O=C(c1cc(Cc2n[nH]c(=O)c3ccccc23)ccc1F)N1CCN(C(=O)C2CC2)CC1 showed solubility equal to < 16.2 mg/mL

* * *

assay notes: Solubility of olaparib at 60° C. in solvents and anti-solvents
Assay type: physicochemical
setup conditions: organic solvent or mixture, Pyridine
endpoint: solubility

The compound O=C(c1cc(Cc2n[nH]c(=O)c3ccccc23)ccc1F)N1CCN(C(=O)C2CC2)CC1 showed solubility equal to > 210 mg/mL

* * *

assay notes: Solubility of olaparib at 60° C. in solvents and anti-solvents
Type: physicochemical
setup conditions: ethanol (EtOH), organic solvent or mixture, EtOH
endpoint: solubility

The compound O=C(c1cc(Cc2n[nH]c(=O)c3ccccc23)ccc1F)N1CCN(C(=O)C2CC2)CC1 showed solubility equal to 21 to 23 mg/mL
